Measured OD450 nm values are reported for all entries that follow.
molecular target: T1, human MSLN-hFc protein (Acro, Cat. No. MSN-H5253) (human, UniProt Q13421 296-580); assay: ELISA, coated human MSLN-hFc, antibody 100 nM
T1 construct: bought protein; also called human MSLN full-length protein; not shown: human Fc (hFc) of the bought protein
T1 sequence (Q13421 other isoform, or with tags, fused parts or gaps limits assumed): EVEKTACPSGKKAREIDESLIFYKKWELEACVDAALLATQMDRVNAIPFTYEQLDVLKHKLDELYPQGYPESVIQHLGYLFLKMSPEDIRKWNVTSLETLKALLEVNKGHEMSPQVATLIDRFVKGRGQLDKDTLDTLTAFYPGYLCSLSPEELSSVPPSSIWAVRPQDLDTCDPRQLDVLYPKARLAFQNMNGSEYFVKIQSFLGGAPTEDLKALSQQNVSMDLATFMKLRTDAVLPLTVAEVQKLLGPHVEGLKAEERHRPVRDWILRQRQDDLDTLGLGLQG
Keep it simple and answer with nothing but the number.

INSERT INTO results (binder, recorded_value) VALUES
  ('F2.23.12-H4 (scFv, not shown: small tags and cut ends, also called S009-F2.23.12 humanized VH1 + VL4) scFv: EVQLVQSGAEVKKPGASVKVSCKASGYTFTNYWMHWVRQAPGQGLEWMGNINPSNGGPYYNERFRSRVTMTVDKSTSTVYMELSSLRSEDTAVYYCARPYYGSSYGYFDYWGQGTTVTVSSGGGGSGGGGSGGGGSDIQMTQSPSSLSASVGDRVTITCKASQDINKYIAWYQHKPGKAPKLLIHYTSELQPGVPSRFSGSGSGRDYTFTISSLQPEDIATYYCLQYANPLRTFGGGTKVEIK', 1.22),
  ('F2.23.12-H13 (scFv, not shown: small tags and cut ends, also called S009-F2.23.12 humanized VH4 + VL1) scFv: EVQLVQSGAEVKKPGASVKVSCKASGYTFTNYWMHWVRQAPGQGLEWMGNINPSQGGPYYNERFRSRVTMTVDKSTSTAYMELSSLRSEDTAVYYCARPYYGSSYGYFDYWGQGTTVTVSSGGGGSGGGGSGGGGSDIQMTQSPSSLSASVGDRVTITCKASQDINKYIAWYQQKPGKAPKLLIHYTSELQPGVPSRFSGSGSGTDFTFTISSLQPEDIATYYCLQYANPLRTFGGGTKVEIK', 1.38),
  ('F2.23.12-H16 (scFv, not shown: small tags and cut ends, also called S009-F2.23.12 humanized VH4 + VL4) scFv: EVQLVQSGAEVKKPGASVKVSCKASGYTFTNYWMHWVRQAPGQGLEWMGNINPSQGGPYYNERFRSRVTMTVDKSTSTAYMELSSLRSEDTAVYYCARPYYGSSYGYFDYWGQGTTVTVSSGGGGSGGGGSGGGGSDIQMTQSPSSLSASVGDRVTITCKASQDINKYIAWYQHKPGKAPKLLIHYTSELQPGVPSRFSGSGSGRDYTFTISSLQPEDIATYYCLQYANPLRTFGGGTKVEIK', 1.2),
  ('F2.23.12-H8 (scFv, not shown: small tags and cut ends, also called S009-F2.23.12 humanized VH2 + VL4) scFv: EVQLVQSGAEVKKPGASVKVSCKASGYTFTNYWMHWVRQAPGQGLEWMGNINPSNGGPYYNERFRSRVTMTVDKSTSTAYMELSSLRSEDTAVYYCARPYYGSSYGYFDYWGQGTTVTVSSGGGGSGGGGSGGGGSDIQMTQSPSSLSASVGDRVTITCKASQDINKYIAWYQHKPGKAPKLLIHYTSELQPGVPSRFSGSGSGRDYTFTISSLQPEDIATYYCLQYANPLRTFGGGTKVEIK', 1.22),
  ('F2.23.12-H5 (scFv, not shown: small tags and cut ends, also called S009-F2.23.12 humanized VH2 + VL1) scFv: EVQLVQSGAEVKKPGASVKVSCKASGYTFTNYWMHWVRQAPGQGLEWMGNINPSNGGPYYNERFRSRVTMTVDKSTSTAYMELSSLRSEDTAVYYCARPYYGSSYGYFDYWGQGTTVTVSSGGGGSGGGGSGGGGSDIQMTQSPSSLSASVGDRVTITCKASQDINKYIAWYQQKPGKAPKLLIHYTSELQPGVPSRFSGSGSGTDFTFTISSLQPEDIATYYCLQYANPLRTFGGGTKVEIK', 1.37);

Okay, next one:
Request: Tell me OD450 nm reported for F2.23.12-H1 (scFv, not shown: small tags and cut ends, also called S009-F2.23.12 humanized VH1 + VL1) scFv: EVQLVQSGAEVKKPGASVKVSCKASGYTFTNYWMHWVRQAPGQGLEWMGNINPSNGGPYYNERFRSRVTMTVDKSTSTVYMELSSLRSEDTAVYYCARPYYGSSYGYFDYWGQGTTVTVSSGGGGSGGGGSGGGGSDIQMTQSPSSLSASVGDRVTITCKASQDINKYIAWYQQKPGKAPKLLIHYTSELQPGVPSRFSGSGSGTDFTFTISSLQPEDIATYYCLQYANPLRTFGGGTKVEIK
Response: 1.22
